Collected TGI values appear next to each entry.
system: NCI-H226 lung; experiment: NCI tumour cell line growth inhibition, 48 h

For this compound ( O=C(Nc1ccc(N2CCNCC2)cn1)c1[nH]ncc1Nc1ncnc2sc3c(c12)CCC3 ), measured TGI is 67.2 µM

Memo: COc1cc(C2S/C(=C/c3ccccc3)C(=O)N2c2ccccn2)cc(OC)c1OC (configuration not stated) , reported TGI: > 96.4 µM

TGI in this record for NCCSc1nc(N)c2ncn(C3OC(CO)C(O)C3O)c2n1 (configuration not stated) : > 100 µM

***
Memo: CN/N=C(/CC(=O)c1sc(NNC(C)=O)nc1C)C(=O)Nc1ccc(OC)cc1OC , reported TGI: > 100 µM

Entry Cc1ccc2c(c1)C/C(=C\c1ccccc1C(=O)O)C2=O — recorded TGI = > 100 µM

COC1=CC(=O)C2C(C1=O)[C@@H]1c3ccccc3OC[C@H]21 (some centres not stated) has a reported TGI of > 100 µM

The recorded TGI for entry C/C=C1/C(=O)O[C@]23C=C[C@@H]4C(C(=O)OC)=CO[C@H](O[C@@H]12)[C@@H]43 equals 5.36 µM

The compound listed as Cc1ccc(NC(=O)CC2C(=O)Nc3ccccc3S2(=O)=O)cc1C (configuration not stated) shows TGI equal to > 100 µM

// recorded TGI for O=c1[nH]c(=S)c2[nH]c(=O)n(-c3ccccc3)c2[nH]1 : > 100 µM

Record CC(=O)OC1(C#N)CC2OC1C1NC21 (configuration not stated) . Reported TGI: > 100 µM

Consider Cc1ccc(S(=O)(=O)N/N=C2\CC3C4CCC3C2C4)cc1 (configuration not stated) . Its measured TGI is > 100 µM

TGI in this record for CCC12C=CCN3CCC4(C(=C(C(=O)OC)C1)Nc1ccccc14)[C@H]32 (some centres not stated) : 86.7 µM

Field TGI (entry NC(N)=N/N=C/c1c(-c2ccc(Cl)cc2)nc2n1CCS2 ) reads 41 µM

Item: CN1CCN(Cc2ccc(NC(=O)c3[nH]ncc3Nc3cc(OC4CCCC4)ncn3)cc2)CC1 | TGI: 10.8 µM

Value of TGI reported for the compound COc1ccc2c(c1)O/C(=C\c1ccc([N+](=O)[O-])s1)C2=O is > 100 µM

The recorded TGI for Cc1nc2c(s/c(=N\N)n2-c2ccccc2)c(=O)n1C is > 100 µM

// TGI value for CC(CNc1nc(Nc2ccc(Cl)c(Cl)c2)nc(C(Cl)(Cl)Cl)n1)N(C)C (configuration not stated) : 3.51 µM

Just so you know, measured TGI for NS(=O)(=O)c1ccc(N=Nc2c(=O)[nH]c3ccc4[nH]cccc4c23)cc1 came out at 3.06 µM

Lab note: measured TGI of COc1cc(OC)cc(Oc2nc3c(N)cc(C(F)(F)F)cc3nc2-c2ccccc2)c1 was > 100 µM

Where these numbers come from: PubChem BioAssay (NCI)
